Molecular target: ROS (Homo sapiens)
Sequence (P08922 28-2347): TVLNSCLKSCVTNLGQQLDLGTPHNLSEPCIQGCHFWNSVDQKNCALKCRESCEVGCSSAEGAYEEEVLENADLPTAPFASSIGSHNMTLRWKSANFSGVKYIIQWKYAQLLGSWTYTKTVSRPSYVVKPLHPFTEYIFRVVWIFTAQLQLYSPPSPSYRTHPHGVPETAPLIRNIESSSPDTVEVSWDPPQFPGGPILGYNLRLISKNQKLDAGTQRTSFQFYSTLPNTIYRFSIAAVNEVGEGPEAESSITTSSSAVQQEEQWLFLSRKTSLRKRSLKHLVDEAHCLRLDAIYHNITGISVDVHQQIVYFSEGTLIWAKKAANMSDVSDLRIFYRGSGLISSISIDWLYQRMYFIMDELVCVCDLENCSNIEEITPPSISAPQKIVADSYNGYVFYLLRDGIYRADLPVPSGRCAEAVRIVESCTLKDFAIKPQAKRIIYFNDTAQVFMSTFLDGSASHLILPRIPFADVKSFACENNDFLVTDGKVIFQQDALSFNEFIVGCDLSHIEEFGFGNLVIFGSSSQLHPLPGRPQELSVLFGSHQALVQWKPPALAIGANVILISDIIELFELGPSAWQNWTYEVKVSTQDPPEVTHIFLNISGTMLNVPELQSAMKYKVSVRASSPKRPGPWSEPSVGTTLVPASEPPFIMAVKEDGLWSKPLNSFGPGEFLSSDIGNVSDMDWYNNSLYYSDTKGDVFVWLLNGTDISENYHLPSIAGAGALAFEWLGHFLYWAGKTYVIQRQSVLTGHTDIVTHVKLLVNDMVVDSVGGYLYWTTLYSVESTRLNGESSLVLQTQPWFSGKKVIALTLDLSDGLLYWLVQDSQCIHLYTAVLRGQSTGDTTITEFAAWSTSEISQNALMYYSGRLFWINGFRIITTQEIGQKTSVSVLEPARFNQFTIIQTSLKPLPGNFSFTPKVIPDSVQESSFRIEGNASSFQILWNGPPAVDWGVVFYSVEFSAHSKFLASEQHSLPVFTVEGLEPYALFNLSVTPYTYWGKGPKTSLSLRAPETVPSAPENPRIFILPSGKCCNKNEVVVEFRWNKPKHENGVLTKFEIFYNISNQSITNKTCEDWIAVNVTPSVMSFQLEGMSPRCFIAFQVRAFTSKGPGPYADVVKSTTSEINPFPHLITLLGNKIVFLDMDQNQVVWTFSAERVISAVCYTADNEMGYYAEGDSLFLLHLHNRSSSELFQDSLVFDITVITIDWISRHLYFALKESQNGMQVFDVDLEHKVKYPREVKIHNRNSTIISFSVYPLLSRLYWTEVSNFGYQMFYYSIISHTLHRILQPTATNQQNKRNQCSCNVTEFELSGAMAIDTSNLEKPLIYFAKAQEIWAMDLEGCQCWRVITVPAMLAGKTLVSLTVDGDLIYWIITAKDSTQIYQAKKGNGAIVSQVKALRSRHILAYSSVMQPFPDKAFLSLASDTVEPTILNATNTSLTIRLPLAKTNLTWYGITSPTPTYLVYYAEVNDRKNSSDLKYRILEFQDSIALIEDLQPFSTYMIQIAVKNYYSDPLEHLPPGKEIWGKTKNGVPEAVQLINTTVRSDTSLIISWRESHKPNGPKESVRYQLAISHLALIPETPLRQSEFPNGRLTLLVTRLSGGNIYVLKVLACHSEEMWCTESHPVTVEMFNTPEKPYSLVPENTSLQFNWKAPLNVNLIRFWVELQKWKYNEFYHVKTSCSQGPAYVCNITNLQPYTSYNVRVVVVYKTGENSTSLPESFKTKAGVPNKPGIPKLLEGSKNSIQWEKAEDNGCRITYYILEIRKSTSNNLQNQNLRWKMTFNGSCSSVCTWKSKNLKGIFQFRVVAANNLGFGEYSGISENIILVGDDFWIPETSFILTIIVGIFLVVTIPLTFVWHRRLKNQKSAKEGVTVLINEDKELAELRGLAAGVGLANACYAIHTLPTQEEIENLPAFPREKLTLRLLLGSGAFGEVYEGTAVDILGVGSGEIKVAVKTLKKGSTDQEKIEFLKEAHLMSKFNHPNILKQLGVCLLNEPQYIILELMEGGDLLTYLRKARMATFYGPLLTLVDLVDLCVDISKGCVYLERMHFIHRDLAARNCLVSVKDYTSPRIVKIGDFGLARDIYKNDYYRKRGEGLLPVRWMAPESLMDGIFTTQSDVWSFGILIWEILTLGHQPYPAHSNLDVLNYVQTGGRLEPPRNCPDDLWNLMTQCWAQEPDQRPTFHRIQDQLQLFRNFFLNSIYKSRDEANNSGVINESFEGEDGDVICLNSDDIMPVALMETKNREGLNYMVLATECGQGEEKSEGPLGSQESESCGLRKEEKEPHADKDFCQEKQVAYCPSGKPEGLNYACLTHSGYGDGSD
Assay: In vitro ROS enzymatic reaction assay (HTRF, Cisbio)
Type: biochemical
Design: ROS or EGFR enzyme, 0.008 ng/ul
Conditions: ROS kinase, compound at 5 uM
Label Fulfilled when Kinase Inhib. 5 uM (%) is strictly below 30%; at or above that, label Not fulfilled.

> print(dat)
                                   molecule     class.name
1  O=C(NCCc1ccccc1)c1cccc(Nc2nccc(Nc3ccc4ncsc4c3)n2)c1 [drawing 281]  Not fulfilled
2  COc1ccccc1C1C(C#N)=C(N)Oc2[nH]nc(C)c21 (stereo not drawn)      Fulfilled
3  Nc1nc(Nc2ccc(C(=O)N3CCCCCC3)cc2)cc(Nc2ccc3ncsc3c2)n1 [drawing 272]      Fulfilled
4  Cc1cccc(C(=O)n2nc(-c3ccco3)nc2NCc2ccccc2)c1 [drawing 294]      Fulfilled
5  O=C1c2ccccc2C(=O)N1C[C@H](O)Cn1nc(-c2cccs2)c2ccccc2c1=O [drawing 268]      Fulfilled
6  O=C(c1ccccc1)c1nc(-c2ccco2)[nH]c1NCc1ccccc1      Fulfilled
7  COc1ccccc1NC(=O)C1=C(C)Nc2ncnn2C1c1ccc[nH]1 (stereo not drawn)  Not fulfilled
8  FC(F)(F)c1cc(-n2c(Cc3cccc4ccccc34)n[nH]c2=S)cc(C(F)(F)F)c1 [drawing 260]      Fulfilled
9  Cc1cc(C)c(NC(=O)c2cc3ccccc3c(=O)s2)c(-c2cc(C)[nH]n2)c1 [drawing 263]      Fulfilled
